# System: IGROV1 ovarian
# Assay remarks: NCI tumour cell line growth inhibition, 48 h
This listing pairs compounds with measured TGI.

| Compound | TGI |
| --- | --- |
| O=C([CH-]C(=O)c1ccccc1)c1ccccc1.O=C([CH-]C(=O)c1ccccc1)c1ccccc1.O=C([CH-]C(=O)c1ccccc1)c1ccccc1.[Cl-].[Zr+4] | > 100 µM |
| CCC[CH2][Sn]([CH2]CCC)([O]C(=O)c1cccc(F)c1F)[O]C(=O)c1cccc(F)c1F | 2.76 µM |
| Cc1ccc(C2C(Cl)C(=O)N2NC(=O)c2ccc(N)cc2)cc1 (stereo not given) | 25.2 µM |

**Q:** For the compound `COc1ccc2c(c1)[n+](=O)c(C(=O)CC(=O)C(=O)Nc1cccc(C)c1C)c(C)n2[O-]` , what TGI is on record?
**A:** > 100 µM

**Q:** Need TGI, item `CC/C(Cc1ccccc1)=C(/c1ccc(O)cc1)c1ccc(OCCN2CCCC2)cc1`
**A:** 4.5 µM

**Q:** Name the recorded TGI for `COC(=O)/C(=C/c1ccc(OC)cc1)C(C(=O)O)=C1CCCCC1` .
**A:** > 100 µM

**Q:** Suppose we examine the compound `CN(C)N=Nc1ccc2[nH]c(=O)[nH]c2c1` ; what TGI value has been reported?
**A:** > 100 µM
